Biological target: LXRα full length (FL) (Homo sapiens)
Construct: the full length (FL) proteins of LXRα (amino acids 1-447); NP005684
Sequence (Q13133 1-447): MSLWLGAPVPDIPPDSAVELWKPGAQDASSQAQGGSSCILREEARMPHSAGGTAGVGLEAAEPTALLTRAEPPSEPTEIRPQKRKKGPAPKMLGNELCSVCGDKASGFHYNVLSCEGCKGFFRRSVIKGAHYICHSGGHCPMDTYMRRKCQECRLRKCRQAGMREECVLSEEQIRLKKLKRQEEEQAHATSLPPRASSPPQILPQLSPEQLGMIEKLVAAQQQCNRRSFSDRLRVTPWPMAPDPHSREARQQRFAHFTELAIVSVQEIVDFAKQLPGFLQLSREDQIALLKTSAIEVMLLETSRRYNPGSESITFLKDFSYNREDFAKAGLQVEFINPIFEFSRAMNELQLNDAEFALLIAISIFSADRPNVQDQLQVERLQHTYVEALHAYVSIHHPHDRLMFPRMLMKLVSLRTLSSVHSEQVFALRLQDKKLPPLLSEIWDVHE
Assay: LXR Gal4 reporter transient transfection assay, mammalian two-hybrid, FL-M2H Gal4α
Conditions: HEK293 cells; inverse agonist unless *
pEC50: −log10 of the molar value.
ASSAY_READOUT: pEC50

Known results for compounds:
Cc1ccc2ccccc2c1C(=O)N(Cc1ccc(-c2cccc(C(C)(C)CC(=O)O)c2)cc1)Cc1ccc(C(F)(F)F)o1 [27/9]; > 7.00
O=C(O)CS(=O)(=O)c1cccc(-c2ccc(CN(Cc3ccc(C(F)(F)F)o3)Cc3cccc4ccccc34)cc2)c1 [7/2]; 6.00 to 7.00
Cc1ccc2ccccc2c1C(=O)N(Cc1ccc(-c2cccc(C(C)(C)C(=O)O)c2)cc1)Cc1ccc(C(C)(C)C)o1 [27/1]; 6.00 to 7.00
CCc1cc(C)cc(C)c1CN(Cc1ccc(-c2cccc(S(=O)(=O)CC(=O)O)c2)cc1)Cc1ccc(C(F)(F)F)o1 [27/35]; 5.00 to 6.00

Query: Give pEC50 (LXRα full length (FL) (Homo sapiens)) of the following compound: Cc1ccc2ccccc2c1C(=O)N(Cc1ccc(-c2cccc(S(=O)(=O)Cc3nnn[nH]3)c2)cc1)Cc1ccc(C(F)(F)F)o1 [Example 30]
Result: 6.00 to 7.00

Query: Give pEC50 (LXRα full length (FL) (Homo sapiens)) of the following compound: Cc1cc(Br)cc(C)c1C(=O)N(Cc1ccc(-c2cccc(C(C)(C)C(=O)O)c2)cc1)Cc1ccc(C(F)(F)F)o1 [27/48]
Result: > 7.00

Query: Give pEC50 (LXRα full length (FL) (Homo sapiens)) of the following compound: Cc1cc(C)c(CN(Cc2ccc(-c3cccc(S(=O)(=O)CC(=O)N(C)O)c3)cc2)Cc2ccc(C(F)(F)F)o2)c(C)c1 [5/2]
Result: 6.00 to 7.00

Query: Give pEC50 (LXRα full length (FL) (Homo sapiens)) of the following compound: Cc1nc2ccc(=O)[nH]c2c(C(=O)N(Cc2ccc(-c3cccc(C(C)(C)C(=O)O)c3)cc2)Cc2ccc(C(F)(F)F)o2)c1C [Example 36]
Result: 5.00 to 6.00

Query: Give pEC50 (LXRα full length (FL) (Homo sapiens)) of the following compound: CC(c1cccc2ncccc12)N(Cc1ccc(-c2cccc(S(=O)(=O)CC(=O)O)c2)cc1)Cc1ccc(C(F)(F)F)o1 (stereo not drawn) [27/8]
Result: 6.00 to 7.00

Query: Give pEC50 (LXRα full length (FL) (Homo sapiens)) of the following compound: O=C(O)CS(=O)(=O)c1cccc(-c2ccc(CN(Cc3ccc(C(F)(F)F)o3)Cc3ccc(F)c4cccnc34)cc2)c1 [7/3]
Result: 5.00 to 6.00

Query: Give pEC50 (LXRα full length (FL) (Homo sapiens)) of the following compound: CCc1nc2ccncc2c(C(=O)N(Cc2ccc(-c3cccc(C(C)(C)C(=O)O)c3)cc2)Cc2ccc(C(F)(F)F)o2)c1C [27/89]
Result: 6.00 to 7.00

Query: Give pEC50 (LXRα full length (FL) (Homo sapiens)) of the following compound: Cc1nn2ncccc2c1C(=O)N(Cc1ccc(-c2cccc(C(C)(C)C(=O)O)c2)cc1)Cc1ccc(C(F)(F)F)o1 [27/122]
Result: 6.00 to 7.00

Query: Give pEC50 (LXRα full length (FL) (Homo sapiens)) of the following compound: Cc1ccc2ccccc2c1C(=O)N(Cc1ccc(C(F)(F)F)o1)Cc1c(F)cc(-c2cccc(C(C)(C)C(=O)O)c2)cc1Cl [27/6]
Result: > 7.00
